biological target: Bromodomain-containing protein 4 (Homo sapiens); assay: Displacement of Biotin-tagged [Lys(5,8,12,16)Ac]H4(1 to 21) peptide from GST-tagged BRD4-BD1 (unknown origin) incubated for 3 hrs by HTRF based TR-FRET assay
pIC50: −log10 of the molar value.
READOUT_LABEL: pIC50

{"COMPOUND": "Cc1cc(-c2ccc3c(c2)n(Cc2ccccc2)c(=O)n3CC(C)C)cn(C)c1=O", "OBSERVED_VALUE": 7.38}
{"COMPOUND": "Cc1cc(-c2ccc3cnn(Cc4ccccc4)c3c2)cn(C)c1=O", "OBSERVED_VALUE": 7.21}
{"COMPOUND": "Cc1cc(-c2ccc3c(c2)N(Cc2ccccc2)C(=O)CN3)cn(C)c1=O", "OBSERVED_VALUE": 6.91}
{"COMPOUND": "CCS(=O)(=O)c1cc(-c2cc(C)c(=O)n(C)c2)cc2c1[nH]c(=O)n2Cc1ccccc1", "OBSERVED_VALUE": 6.95}
{"COMPOUND": "CC[S+]([O-])c1cc(-c2cc(C)c(=O)n(C)c2)cc2c1[nH]c(=O)n2Cc1ccccc1 (stereo not given)", "OBSERVED_VALUE": 6.80}

###

experiment: Half life in Slc:ICR mouse at 0.5 mg/kg, iv measured for 4 to 8 hrs by LC/MS/MS analysis; assay type: ADME, organism-based; details: in vivo, time 4-8 hrs

{"SMILES": "Cc1cc(-c2cc3c4c(c2)n(Cc2ccccc2)c(=O)n4CCO3)cn(C)c1=O", "half-life, h": 4.1}

###

target: Bromodomain-containing protein 4 (Homo sapiens); test: Inhibition of NanoLuc-tagged full length BRD4 (unknown origin) transfected in HEK293 cells coexpressing histone H4-halo-tagged fusion vector preincubated overnight followed by substrate addition and measured after 10 mins by NanoBRET assay; format: cell-based
pIC50: −log10 of the molar value.
READOUT_LABEL: pIC50

{"SMILES": "Cc1cc(-c2cc3c4c(c2)n(Cc2ccccc2)c(=O)n4CCO3)cn(C)c1=O", "READOUT_LABEL": "pIC50", "OBSERVED_VALUE": 7.09}

###

Below, each entry is listed alongside its reported clearance.
test: Total clearance in Slc:ICR mouse at 0.5 mg/kg, iv measured for 4 to 8 hrs by LC/MS/MS analysis; assay type: ADME, organism-based; conditions: in vivo, time 4-8 hrs

{"SMILES": "Cc1cc(-c2ccc3[nH]c(=O)n(Cc4ccccc4)c3c2)cn(C)c1=O", "clearance": "40 mL/min"}
{"SMILES": "Cc1cc(-c2cc3c4c(c2)n(Cc2ccccc2)c(=O)n4CCO3)cn(C)c1=O", "clearance": "3.3 mL/min"}

###

test: Stability in human liver microsomes assessed as intrinsic clearance measured per mg protein
READOUT_LABEL: CLH (mL/min)

{"SMILES": "CCS(=O)(=O)Nc1cc(-c2cc(C)c(=O)n(C)c2)cc2c1[nH]c(=O)n2Cc1ccccc1", "UNIT_INFO": "mL/min", "BOUND_SIGN": "<", "OBSERVED_VALUE": 9.6}
{"SMILES": "Cc1cc(-c2ccc3[nH]c(=O)n(Cc4ccccc4)c3c2)cn(C)c1=O", "UNIT_INFO": "mL/min", "BOUND_SIGN": "=", "OBSERVED_VALUE": 29}
{"SMILES": "Cc1cc(-c2ccc3cnn(Cc4ccccc4)c3c2)cn(C)c1=O", "UNIT_INFO": "mL/min", "BOUND_SIGN": "=", "OBSERVED_VALUE": 43}
{"SMILES": "Cc1cc(-c2ccc3c(c2)n(Cc2ccccc2)c(=O)n3C(C)C)cn(C)c1=O", "UNIT_INFO": "mL/min", "BOUND_SIGN": "=", "OBSERVED_VALUE": 27}
{"SMILES": "Cc1cc(-c2ccc3c(c2)n(Cc2ccccc2)c(=O)n3C)cn(C)c1=O", "UNIT_INFO": "mL/min", "BOUND_SIGN": "=", "OBSERVED_VALUE": 25}
{"SMILES": "CCS(=O)(=O)NCc1cc(-c2cc(C)c(=O)n(C)c2)cc2c1[nH]c(=O)n2Cc1ccccc1", "UNIT_INFO": "mL/min", "BOUND_SIGN": "=", "OBSERVED_VALUE": 43}
{"SMILES": "CCS(=O)(=O)Cc1cc(-c2cc(C)c(=O)n(C)c2)cc2c1n(C)c(=O)n2Cc1ccccc1", "UNIT_INFO": "mL/min", "BOUND_SIGN": "=", "OBSERVED_VALUE": 14}
{"SMILES": "CCS(=O)(=O)NCc1cc(-c2cc(C)c(=O)n(C)c2)cc2c1n(C)c(=O)n2Cc1ccccc1", "UNIT_INFO": "mL/min", "BOUND_SIGN": "=", "OBSERVED_VALUE": 37}
{"SMILES": "Cc1cc(-c2ccc3ncn(Cc4ccccc4)c3c2)cn(C)c1=O", "UNIT_INFO": "mL/min", "BOUND_SIGN": "=", "OBSERVED_VALUE": 65}
{"SMILES": "Cc1cc(-c2ccc3c(c2)n(Cc2ccccc2)c(=O)n3CC(C)C)cn(C)c1=O", "UNIT_INFO": "mL/min", "BOUND_SIGN": "=", "OBSERVED_VALUE": 352}
{"SMILES": "CCS(=O)(=O)Cc1cc(-c2cc(C)c(=O)n(C)c2)cc2c1[nH]c(=O)n2Cc1ccccc1", "UNIT_INFO": "mL/min", "BOUND_SIGN": "=", "OBSERVED_VALUE": 11}
{"SMILES": "Cc1cc(-c2ccc3nnn(Cc4ccccc4)c3c2)cn(C)c1=O", "UNIT_INFO": "mL/min", "BOUND_SIGN": "=", "OBSERVED_VALUE": 49}

The measurements presented in this section are drawn from ChEMBL document CHEMBL5370578.
